test system: Amaranthus retroflexus; experiment: greenhouse pre-emergence treatment, herbicidal activity; assay type: in vivo; settings: pre-emergence (values labeled *), 1000 g/ha, scale 0 to 100
Catalogue of damage [%] in weed species III (AMARE) values
METRIC_NAME: damage [%] in weed species III (AMARE) (%)

SMILES_REPRESENTATION | OBSERVED
Cn1cnnc1NC(=O)c1c(F)cc(Cl)c(S(C)(=O)=O)c1Cl | 85
CCn1cnnc1NC(=O)c1c(F)cc(Cl)c(SC)c1Cl | 90
CCn1cnnc1NC(=O)c1c(F)cc(Cl)c(S(C)(=O)=O)c1Cl | 95

---

tested on: Abutilon theophrasti; test: greenhouse post-emergence treatment, herbicidal activity; format: in vivo; settings: 1000 g/ha, scale 0 to 100
Catalogue of damage [%] in weed species I (ABUTH) values
METRIC_NAME: damage [%] in weed species I (ABUTH) (%)

COMPOUND | OBSERVED
CCn1cnnc1NC(=O)c1c(F)cc(Cl)c(S(C)(=O)=O)c1Cl [cpd. 2] | 100
Cn1cnnc1NC(=O)c1c(F)cc(Cl)c(S(C)(=O)=O)c1Cl [cpd. 5] | 98
CSc1c(Cl)cc(F)c(C(=O)Nc2nncn2C)c1Cl [cpd. 4] | 100
CCn1cnnc1NC(=O)c1c(F)cc(Cl)c(SC)c1Cl [cpd. 3] | 100
